Would you kindly list AC50 for each of these compounds?
# targetOfAssay: UniProt:P49841
# Sequence (P49841 whole entry, looked up): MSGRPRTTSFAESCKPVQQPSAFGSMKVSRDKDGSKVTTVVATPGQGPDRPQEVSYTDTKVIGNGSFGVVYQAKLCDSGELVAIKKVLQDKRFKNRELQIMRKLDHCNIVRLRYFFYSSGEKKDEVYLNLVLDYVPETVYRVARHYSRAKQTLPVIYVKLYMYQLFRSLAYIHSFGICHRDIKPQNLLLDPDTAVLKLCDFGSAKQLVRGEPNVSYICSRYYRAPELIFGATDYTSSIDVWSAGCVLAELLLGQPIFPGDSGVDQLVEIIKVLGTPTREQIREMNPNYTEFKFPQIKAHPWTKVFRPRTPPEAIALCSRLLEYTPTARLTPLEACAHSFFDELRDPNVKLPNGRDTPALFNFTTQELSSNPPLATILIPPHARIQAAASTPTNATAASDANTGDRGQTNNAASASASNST
# experimentSummary: GSK3beta inhibitors at high ATP, SAR follow-up, mechanism study for GSK3beta inhibitor project, biochemical, varied ATP levels, ADP-Glo luminescence, dry powder samples (AID 624027)
# condition: GST-GSK3beta kinase, 100 uM ATP

Which AC50 reading was recorded for the compound CC1(C)CC(=O)C2=C(C1)Nc1n[nH]c(C(F)(F)F)c1C2c1ccccc1F (configuration not stated) ?
932 nM

Try CC1(C)CC(=O)C2=C(C1)Nc1n[nH]c(C(F)(F)F)c1C2c1cc(F)ccc1OC(F)(F)F (configuration not stated) next.
2340 nM

Try `Cc1[nH]nc2c1[C@H](c1ccccc1C(F)(F)F)C1=C(CC(C)(C)CC1=O)N2` next.
31900 nM

Try `CC1(C)CC(=O)/C(=C\c2ccccc2C(F)(F)F)C(=Nc2cc(C(F)(F)F)[nH]n2)C1` next.
25200 nM

Try `COc1ccccc1[C@@H]1C2=C(CC(C)(C)CC2=O)Nc2n[nH]c(C(F)(F)F)c21` next.
143 nM

Try CC1(C)CC(=O)C2=C(C1)Nc1n[nH]c(C(F)(F)F)c1C2c1ccccc1 (configuration not stated) next.
103 nM

Try `Cc1[nH]nc2c1[C@@H](c1ccccc1C(F)(F)F)C1=C(CC(C)(C)CC1=O)N2` next.
231 nM
